Molecular target: UniProt Q02763
Sequence (Q02763 whole entry): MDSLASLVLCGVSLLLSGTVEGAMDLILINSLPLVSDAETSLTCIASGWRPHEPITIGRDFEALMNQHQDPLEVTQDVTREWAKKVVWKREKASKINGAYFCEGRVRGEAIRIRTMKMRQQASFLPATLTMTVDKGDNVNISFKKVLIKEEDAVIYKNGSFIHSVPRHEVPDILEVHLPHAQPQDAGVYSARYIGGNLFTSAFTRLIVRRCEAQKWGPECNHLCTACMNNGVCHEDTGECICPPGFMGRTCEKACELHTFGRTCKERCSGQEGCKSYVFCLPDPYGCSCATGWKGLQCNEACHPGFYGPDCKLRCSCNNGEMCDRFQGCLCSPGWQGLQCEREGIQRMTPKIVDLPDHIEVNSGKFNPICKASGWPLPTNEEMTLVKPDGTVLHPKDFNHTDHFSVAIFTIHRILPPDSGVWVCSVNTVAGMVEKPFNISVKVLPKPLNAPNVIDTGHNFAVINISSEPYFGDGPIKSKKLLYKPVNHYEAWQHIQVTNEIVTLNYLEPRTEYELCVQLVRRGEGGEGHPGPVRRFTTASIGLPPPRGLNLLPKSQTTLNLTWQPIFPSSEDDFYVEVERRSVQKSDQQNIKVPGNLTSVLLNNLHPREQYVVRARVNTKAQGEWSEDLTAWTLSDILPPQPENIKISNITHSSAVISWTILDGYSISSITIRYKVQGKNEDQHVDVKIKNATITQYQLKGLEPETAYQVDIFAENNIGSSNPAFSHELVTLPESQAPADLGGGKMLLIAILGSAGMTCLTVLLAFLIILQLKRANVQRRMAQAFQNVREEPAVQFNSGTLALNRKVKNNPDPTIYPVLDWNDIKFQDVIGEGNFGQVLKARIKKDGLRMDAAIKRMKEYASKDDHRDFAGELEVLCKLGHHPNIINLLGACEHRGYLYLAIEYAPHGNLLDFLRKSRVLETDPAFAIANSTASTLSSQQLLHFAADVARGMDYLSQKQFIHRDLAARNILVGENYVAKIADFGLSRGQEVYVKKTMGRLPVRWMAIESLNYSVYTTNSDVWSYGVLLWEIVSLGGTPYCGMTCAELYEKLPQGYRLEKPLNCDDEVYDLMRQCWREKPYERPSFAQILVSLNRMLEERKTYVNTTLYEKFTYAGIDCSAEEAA
READOUT_TYPE: IC50

For CC(C)OCc1ccc2c(c1)c1c3c(c4c(c1n2CCCO)Cc1ccccc1-4)C(=O)NC3 , write its IC50.
> 10 µM

###

Target: Mast/stem cell growth factor receptor Kit (Homo sapiens)
Sequence (P10721 whole entry): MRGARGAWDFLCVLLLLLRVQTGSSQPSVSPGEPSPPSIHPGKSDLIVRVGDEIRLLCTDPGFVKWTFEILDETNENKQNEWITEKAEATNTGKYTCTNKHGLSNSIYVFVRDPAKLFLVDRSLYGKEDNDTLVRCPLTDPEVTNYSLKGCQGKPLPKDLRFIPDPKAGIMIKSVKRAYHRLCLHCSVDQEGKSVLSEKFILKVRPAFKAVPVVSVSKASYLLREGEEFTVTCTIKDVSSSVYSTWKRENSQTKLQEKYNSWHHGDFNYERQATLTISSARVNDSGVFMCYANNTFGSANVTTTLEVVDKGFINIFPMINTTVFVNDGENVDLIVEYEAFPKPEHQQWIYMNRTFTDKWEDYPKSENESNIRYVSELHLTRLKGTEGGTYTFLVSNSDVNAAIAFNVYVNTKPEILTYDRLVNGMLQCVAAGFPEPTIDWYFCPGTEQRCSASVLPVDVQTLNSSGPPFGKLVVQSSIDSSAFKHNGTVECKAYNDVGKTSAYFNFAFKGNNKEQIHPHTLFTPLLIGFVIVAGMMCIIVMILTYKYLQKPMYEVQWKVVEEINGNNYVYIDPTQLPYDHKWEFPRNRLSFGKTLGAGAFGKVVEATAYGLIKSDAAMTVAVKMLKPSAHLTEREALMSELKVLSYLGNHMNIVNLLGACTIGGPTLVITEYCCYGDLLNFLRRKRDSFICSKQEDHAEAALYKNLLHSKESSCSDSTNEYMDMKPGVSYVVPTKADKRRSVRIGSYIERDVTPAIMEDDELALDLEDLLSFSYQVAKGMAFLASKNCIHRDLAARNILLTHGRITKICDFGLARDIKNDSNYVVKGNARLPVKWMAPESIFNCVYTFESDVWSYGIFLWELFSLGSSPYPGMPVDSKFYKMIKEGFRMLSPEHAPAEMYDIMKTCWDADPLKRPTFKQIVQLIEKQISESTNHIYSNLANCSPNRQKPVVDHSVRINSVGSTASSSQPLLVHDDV
Experiment: Inhibition of Proto-oncogene tyrosine-protein kinase Kit
READOUT_TYPE: pIC50
As a rule, pIC50 stands for the negative log10 of the concentration, concentration in M.

For CC(C)OCc1ccc2c(c1)c1c3c(c4c(c1n2CCCO)Cc1ccccc1-4)C(=O)NC3 [CEP-5214] , write its pIC50.
7.24
